System: Escherichia coli TOP10
Test: shrunken log2 fold change of peptide-encoding DNA abundance (4.5 h post-induction vs induction); higher = less antimicrobial activity (less host growth inhibition)
Details: time post-induction: 4.5 h; library: site-saturation at positions 5, 18, 19, 20
endpoint_name: shrunken log2 fold change
Output: the number by itself.

Reported shrunken log2 fold change for Escherichia coli TOP10, given RRIRMRPPRLPRPRPRPCDDPRP ? 0.553

Form field: shrunken log2 fold change recorded for RRIRHRPPRLPRPRPRPDDWPRP with Escherichia coli TOP10 (enter value) -0.0115

Fill in the recorded shrunken log2 fold change for this sequence, with Escherichia coli TOP10 as test system: RRIRKRPPRLPRPRPRPCHWPRP 0.139

So what shrunken log2 fold change did RRIRLRPPRLPRPRPRPQVWPRP get with Escherichia coli TOP10? 0.000105

Tell me reported shrunken log2 fold change for RRIRSRPPRLPRPRPRPWIWPRP , tested with Escherichia coli TOP10. 0.341

Find the measured shrunken log2 fold change: item RRIRRRPPRLPRPRPRPVASPRP , target or system Escherichia coli TOP10. 0.0932

// map RRIRERPPRLPRPRPRPGHNPRP to recorded shrunken log2 fold change (system: Escherichia coli TOP10) -0.115

Observed shrunken log2 fold change on Escherichia coli TOP10 for RRIRRRPPRLPRPRPRPNSEPRP , please. 0.381

For Escherichia coli TOP10, provide shrunken log2 fold change of RRIRARPPRLPRPRPRPVRCPRP please. 0.966

Tell me reported shrunken log2 fold change for RRIRPRPPRLPRPRPRPIAIPRP , tested with Escherichia coli TOP10. 0.247

Query for Escherichia coli TOP10: what shrunken log2 fold change does the record show for RRIRQRPPRLPRPRPRPTDPPRP ? 0.107

Look up shrunken log2 fold change with Escherichia coli TOP10 for this sequence: RRIRIRPPRLPRPRPRPYNSPRP -0.0199

Write down the reported shrunken log2 fold change of RRIRIRPPRLPRPRPRPWCAPRP , test system: Escherichia coli TOP10. -0.377

Give recorded shrunken log2 fold change with Escherichia coli TOP10 for the following sequence: RRIRKRPPRLPRPRPRPQPEPRP 0.7

Return shrunken log2 fold change measured with Escherichia coli TOP10 given this sequence: RRIRGRPPRLPRPRPRPGCYPRP 0.345

Please tell me: shrunken log2 fold change of RRIRHRPPRLPRPRPRPYRDPRP , system Escherichia coli TOP10? -0.0135

Param readout = shrunken log2 fold change; param system = Escherichia coli TOP10; param query = RRIRPRPPRLPRPRPRPCHHPRP ; response: value -0.536

Form field: shrunken log2 fold change recorded for RRIRKRPPRLPRPRPRPKNGPRP with Escherichia coli TOP10 (enter value) 0.173

Request: shrunken log2 fold change, test system Escherichia coli TOP10, entry RRIRNRPPRLPRPRPRPPGGPRP 0.748

Short answer please: shrunken log2 fold change, Escherichia coli TOP10, entry RRIRDRPPRLPRPRPRPVLCPRP 0.28

Give the reported shrunken log2 fold change for RRIRSRPPRLPRPRPRPFKYPRP (system: Escherichia coli TOP10). -0.418

Lookup: shrunken log2 fold change / Escherichia coli TOP10 / RRIRSRPPRLPRPRPRPDAHPRP 0.0464

Please tell me: shrunken log2 fold change of RRIRQRPPRLPRPRPRPYSYPRP , system Escherichia coli TOP10? -0.337

Return shrunken log2 fold change measured with Escherichia coli TOP10 given this sequence: RRIRQRPPRLPRPRPRPDHAPRP 0.014

Form: Entry = RRIRTRPPRLPRPRPRPNGNPRP | System = Escherichia coli TOP10 | shrunken log2 fold change = ____ -0.302

Reported shrunken log2 fold change for Escherichia coli TOP10, given RRIRVRPPRLPRPRPRPCSCPRP ? 0.141

Form field: shrunken log2 fold change recorded for RRIRIRPPRLPRPRPRPDKSPRP with Escherichia coli TOP10 (enter value) -0.0563

Value wanted: shrunken log2 fold change (Escherichia coli TOP10) of entry RRIRPRPPRLPRPRPRPPTSPRP 0.276

Hello, I am looking for reported shrunken log2 fold change with Escherichia coli TOP10 for RRIRARPPRLPRPRPRPNFIPRP . Could you help? -0.521

Notebook entry, Escherichia coli TOP10 assay: shrunken log2 fold change of RRIRCRPPRLPRPRPRPKLRPRP = ? 0.564

Form entry - test system: Escherichia coli TOP10; read-out: shrunken log2 fold change; sequence: RRIRFRPPRLPRPRPRPCVIPRP 0.0397

Item: RRIRARPPRLPRPRPRPSCHPRP Test system: Escherichia coli TOP10 Read-out: shrunken log2 fold change Value: ? -0.138

====

System: Escherichia coli TOP10
Test: shrunken log2 fold change of peptide-encoding DNA abundance (4.5 h post-induction vs induction); higher = less antimicrobial activity (less host growth inhibition)
Settings: time post-induction: 4.5 h; library: site-saturation at positions 5, 18, 19, 20
Our labelling divides records by shrunken log2 fold change into ranges: A (below -0.02), B (-0.02 to below 0.05), C (0.05 or more)

Band for RRIRVRPPRLPRPRPRPQFMPRP ? A

Which shrunken log2 fold change band matches RRIRCRPPRLPRPRPRPTADPRP ? C

Please report the category associated with RRIRHRPPRLPRPRPRPQPYPRP , nothing else. A

For RRIRSRPPRLPRPRPRPIEDPRP , which shrunken log2 fold change bin applies? B

Lab log: RRIRWRPPRLPRPRPRPIVWPRP — assign shrunken log2 fold change category B

Bin this entry: RRIRWRPPRLPRPRPRPVVCPRP C

# bin lookup: classify RRIRSRPPRLPRPRPRPCLCPRP by its shrunken log2 fold change A

Given RRIRQRPPRLPRPRPRPWWKPRP , name the class its shrunken log2 fold change places it in. B

For RRIRCRPPRLPRPRPRPCVWPRP , which shrunken log2 fold change bin applies? B

In plain terms, what class is RRIRYRPPRLPRPRPRPALGPRP ? B

Exercise: read the entry RRIRDRPPRLPRPRPRPMTGPRP and state which class it falls under. B

Band for the recorded shrunken log2 fold change of RRIRKRPPRLPRPRPRPVTLPRP ? C

Bin? RRIRTRPPRLPRPRPRPSERPRP A

Exercise: read the entry RRIRARPPRLPRPRPRPTMMPRP and state which class it falls under. C

====

Tested on: Escherichia coli TOP10;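 further: peptides expressed intracellularly from a pBAD plasmid library in pooled LB shake-flask culture, induced with 0.3% L-arabinose, DNA abundance read by NGS, three biological replicates, DESeq2 with apeglm shrinkage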
Assay: shrunken log2 fold change of peptide-encoding DNA abundance (4.5 h post-induction vs induction); higher = less antimicrobial activity (less host growth inhibition)
Settings: time post-induction: 4.5 h; library: site-saturation at positions 5, 18, 19, 20
endpoint_name: shrunken log2 fold change
Answer using only a numeral; do not append any unit.

State the recorded shrunken log2 fold change for this entry: RRIRNRPPRLPRPRPRPACYPRP -0.265

GET /values?readout=shrunken log2 fold change&item= RRIRQRPPRLPRPRPRPKGGPRP 0.0347

Could you tell me which shrunken log2 fold change is on file for RRIRHRPPRLPRPRPRPEEYPRP ? -0.289

shrunken log2 fold change lookup needed for RRIRKRPPRLPRPRPRPACQPRP , thanks. 0.0289

# get_value(readout='shrunken log2 fold change', item= RRIRVRPPRLPRPRPRPWFIPRP ) -0.329

Could you tell me which shrunken log2 fold change is on file for RRIRLRPPRLPRPRPRPVGIPRP ? 0.102

# input sequence: RRIRRRPPRLPRPRPRPPQDPRP ; wanted: its shrunken log2 fold change 1.39

Need shrunken log2 fold change, item RRIRWRPPRLPRPRPRPDILPRP 0.0776

Requested field: shrunken log2 fold change. Item: RRIRERPPRLPRPRPRPWADPRP -0.00088

Fill blank: measured shrunken log2 fold change of the sequence RRIRDRPPRLPRPRPRPYYEPRP is ____. -0.226

shrunken log2 fold change for RRIRIRPPRLPRPRPRPGPLPRP ? -0.00626

Given RRIRYRPPRLPRPRPRPAVKPRP , state its recorded shrunken log2 fold change. -0.0154

Can you share its shrunken log2 fold change? I mean this sequence: RRIRKRPPRLPRPRPRPTDEPRP 0.819

Name the reported shrunken log2 fold change value associated with the sequence RRIRQRPPRLPRPRPRPGYPPRP -0.181

# lookup: shrunken log2 fold change of RRIRTRPPRLPRPRPRPKIRPRP 0.0372

Fill in: shrunken log2 fold change of RRIRQRPPRLPRPRPRPAWEPRP is ___ 0.245

Any idea what shrunken log2 fold change was measured for RRIRMRPPRLPRPRPRPAVTPRP ? 0.177

// lookup shrunken log2 fold change for RRIRSRPPRLPRPRPRPSTKPRP -0.00791

Can you look up the measured shrunken log2 fold change of RRIRHRPPRLPRPRPRPYKAPRP for me? -0.484

Give the measured shrunken log2 fold change of RRIRIRPPRLPRPRPRPFKEPRP . -0.263

Field request: shrunken log2 fold change | item: RRIRSRPPRLPRPRPRPCTTPRP -0.135

State the recorded shrunken log2 fold change for this entry: RRIRSRPPRLPRPRPRPECKPRP 0.275

# get_value(readout='shrunken log2 fold change', item= RRIRGRPPRLPRPRPRPHHLPRP ) 0.374

Fill in the blank: the reported shrunken log2 fold change of RRIRQRPPRLPRPRPRPFTPPRP is ____. -0.388

Which shrunken log2 fold change is listed for RRIRARPPRLPRPRPRPCVQPRP ? 0.217

Can you look up the measured shrunken log2 fold change of RRIRNRPPRLPRPRPRPKLWPRP for me? -0.0235

Find the recorded shrunken log2 fold change belonging to RRIRHRPPRLPRPRPRPTNGPRP and report it. -0.154

Entry RRIRFRPPRLPRPRPRPEVSPRP : reported shrunken log2 fold change = ? -0.149

Looking for the measured shrunken log2 fold change of RRIRWRPPRLPRPRPRPGTTPRP , can you help? 0.0295

Consider the sequence shown here: RRIRDRPPRLPRPRPRPLCNPRP What is its recorded shrunken log2 fold change? -0.00406

What value of shrunken log2 fold change has been recorded for this entry: RRIRKRPPRLPRPRPRPLPIPRP 0.143

May I ask what shrunken log2 fold change has been recorded for RRIRKRPPRLPRPRPRPYLGPRP ? -0.0981

// query shrunken log2 fold change value for entry RRIRKRPPRLPRPRPRPYEGPRP -0.0017

What measured shrunken log2 fold change goes with RRIRGRPPRLPRPRPRPCRHPRP ? 0.0672

Looking for the measured shrunken log2 fold change of RRIRWRPPRLPRPRPRPDPAPRP , can you help? 0.663

I have this sequence here, RRIRIRPPRLPRPRPRPRGCPRP , and I need its recorded shrunken log2 fold change. 0.255

So what does the record say about shrunken log2 fold change for RRIRWRPPRLPRPRPRPTVHPRP ? -0.189

Would you kindly share the measured shrunken log2 fold change for RRIRVRPPRLPRPRPRPKEIPRP ? 0.104

Which shrunken log2 fold change is listed for RRIRCRPPRLPRPRPRPQGFPRP ? -0.0235

// lookup shrunken log2 fold change for RRIRNRPPRLPRPRPRPFSIPRP 0.000741

Please report the recorded shrunken log2 fold change for RRIRCRPPRLPRPRPRPRGAPRP . 0.766

Please give the measured shrunken log2 fold change for this sequence: RRIRDRPPRLPRPRPRPVCKPRP -0.0246

Returns the measured shrunken log2 fold change for the input sequence. Input: RRIRERPPRLPRPRPRPKPNPRP 0.0803

Reported shrunken log2 fold change, sequence RRIRYRPPRLPRPRPRPTVDPRP : ____ 0.0546

# get_value(readout='shrunken log2 fold change', item= RRIRHRPPRLPRPRPRPCLMPRP ) -0.0298

For RRIRNRPPRLPRPRPRPNYRPRP , what is its reported shrunken log2 fold change? -0.264

What value of measured shrunken log2 fold change is listed for RRIRWRPPRLPRPRPRPDSSPRP ? -0.238

Entry RRIRPRPPRLPRPRPRPRCMPRP : reported shrunken log2 fold change = ? 0.0856

What value of shrunken log2 fold change has been recorded for this entry: RRIRCRPPRLPRPRPRPYKTPRP -0.404

Consider the sequence RRIRSRPPRLPRPRPRPDPGPRP and give its measured shrunken log2 fold change. 0.246

Looking for the measured shrunken log2 fold change of RRIRPRPPRLPRPRPRPYQSPRP , can you help? -0.194

// lookup shrunken log2 fold change for RRIRRRPPRLPRPRPRPNFHPRP 0.75

Entry RRIRSRPPRLPRPRPRPNQEPRP : reported shrunken log2 fold change = ? 0.0169

What measured shrunken log2 fold change goes with RRIRLRPPRLPRPRPRPYLGPRP ? -0.425

Using the record for RRIRCRPPRLPRPRPRPVHVPRP , report its shrunken log2 fold change. -0.496

Report shrunken log2 fold change for RRIRGRPPRLPRPRPRPMVDPRP please. 0.0455

Please look up its shrunken log2 fold change: RRIRRRPPRLPRPRPRPCAFPRP 0.123

Request the reported shrunken log2 fold change associated with RRIRLRPPRLPRPRPRPVYHPRP -0.856

Item under review: RRIRLRPPRLPRPRPRPFNGPRP . Reported shrunken log2 fold change? -0.0434

Entry RRIRDRPPRLPRPRPRPGENPRP has what shrunken log2 fold change? -0.00211

# get_value(readout='shrunken log2 fold change', item= RRIRKRPPRLPRPRPRPSVTPRP ) -0.0473

Endpoint output: shrunken log2 fold change of RRIRTRPPRLPRPRPRPDYEPRP . Value? -0.023

Give its shrunken log2 fold change value. Item: RRIRKRPPRLPRPRPRPVPHPRP 0.189
